System: Fibroblast
Assay: Multiplex assay against human fibroblast
Assay type: toxicity, cell-based
Conditions: 24 h, 1 µM, compound concentration 1 uM, replicate 1
MEASURED_ATTRIBUTE: Population Healthy Nuclei (%)
Numbers only; they are read as %.

Reference set, count: 3
>>> result_number("Cc1[nH]c(/C=C2\\C(=O)Nc3ccc(S(=O)(=O)N(C)c4cccc(Cl)c4)cc32)c(C)c1C(=O)N1CCN(C)CC1")
56
>>> result_number("CN1CCC[C@@H]1CCO[C@](C)(c1ccccc1)c1ccc(Cl)cc1.O=C(O)/C=C/C(=O)O [CLEMASTINE FUMARATE]")
50
>>> result_number("Cn1cc(-c2[nH]c3cc(NC(=O)[C@H](N)C4CCCCC4)cc4c3c2C=NNC4=O)cn1")
44

### Prompt Quick one: Population Healthy Nuclei (%) for "COc1ncc(-c2ccc3nccc(-c4ccnnc4)c3c2)cc1NS(=O)(=O)c1ccc(F)cc1F" ?
### Response 53

### Prompt Quick one: Population Healthy Nuclei (%) for "CN(C)CC#Cc1ccc(OCCCc2sc(N3CCc4cccc(C(=O)Nc5nc6ccccc6s5)c4C3)nc2C(=O)O)c(F)c1" ?
### Response 33

====

Population Mitochondria Different-Phenotype (%) values by entry
Test system: Fibroblast
Assay: Multiplex assay against human fibroblast
Format: toxicity, cell-based
Settings: 12 h, 1 µM, compound concentration 1 uM, replicate 1
Numbers only; they are read as %.

>>> result_number("CN1CCCC(n2nc(Cc3ccc(Cl)cc3)c3ccccc3c2=O)CC1.Cl (stereo unspecified) [AZELASTINE HYDROCHLORIDE]")
9
>>> result_number("Cc1nc(-c2ccc(-c3ccc(C(=O)N4CCc5cc6c(cc54)C4(CCN(C)CC4)CO6)cc3)c(C)c2)no1 [SB-224289]")
25
>>> result_number("CC(C)(O)CNc1ncc(-c2ccnc(Nc3ccnc(Cl)c3)n2)c(CC2CC2)n1")
6

### Prompt Quick one: Population Mitochondria Different-Phenotype (%) for Cc1nc(-c2cn3c(n2)-c2ccc(-c4cnn(C(C)(C)C(N)=O)c4)cc2OCC3)n(C(C)C)n1 [TASELISIB] ?
### Response 6

### Prompt Quick one: Population Mitochondria Different-Phenotype (%) for Cc1c(-c2ccc(O)cc2)n(Cc2ccc(OCCN3CCCCCC3)cc2)c2ccc(O)cc12 [BAZEDOXIFENE] ?
### Response 19

====

Population Apoptotic (%) values by entry
Tested on: Fibroblast
Experiment: Multiplex assay against human fibroblast
Type: toxicity, cell-based
Conditions: 48 h, 10 µM, compound concentration 10 uM, replicate 1
Numbers only; they are read as %.

Reference set, count: 3
>>> result_number("CN(C)CC#Cc1ccc(OCCCc2sc(N3CCc4cccc(C(=O)Nc5nc6ccccc6s5)c4C3)nc2C(=O)O)c(F)c1")
66
>>> result_number("C=CC(=O)Nc1ccc2ncnc(Nc3ccc(OCc4cccc(F)c4)c(Cl)c3)c2c1.Cc1ccc(S(=O)(=O)O)cc1")
81
>>> result_number("CN1CCN(CCOc2cc(OC3CCOCC3)c3c(Nc4c(Cl)ccc5c4OCO5)ncnc3c2)CC1")
71

Proceeding to the next compound to report its Population Apoptotic (%).
### Prompt Quick one: Population Apoptotic (%) for "CNCc1ccccc1-c1csc([C@H](C)Nc2nc(C)nc3cc(OC)c(OC)cc23)c1" ?
### Response 75

====

Tested on: U2OS
Experiment: Incucyte cell viability with U2OS; also: filed as whole numbers so only -1 and 0 and 1 occur
Assay type: toxicity, cell-based
Conditions: human, 18 h, 10 µM, compound concentration 10 uM, replicate number 1, timepoint 18 hours
Growth Rate values by entry
Keep the answer to the number alone.

>>> result_number("CN([C@@H]1CCc2c(CC(=O)O)c3cc(S(C)(=O)=O)ccc3n2C1)S(=O)(=O)c1ccc(F)cc1 [CRTH2-negative-control]")
0

### Prompt # query: Growth Rate | item "CCN(CC)CCCCNc1ncc2cc(-c3cc(OC)cc(OC)c3)c(NC(=O)NC(C)(C)C)nc2n1" | system: U2OS
### Response 0

### Prompt # query: Growth Rate | item C[C@@H](NCCCc1cccc(C(F)(F)F)c1)c1cccc2ccccc12.Cl [CINACALCET HYDROCHLORIDE] | system: U2OS
### Response 0

### Prompt # query: Growth Rate | item "Cc1cc(C)cc(-c2cnc3cc(Cl)c(-c4cccc(O)c4)cc3c2OCCCN)c1" | system: U2OS
### Response 0

### Prompt # query: Growth Rate | item "CC1(C)CCC(C)(C)c2cc(C3(c4ccc(C(=O)O)cc4)OCCO3)ccc21" | system: U2OS
### Response 1

### Prompt # query: Growth Rate | item "C[C@@]1(C(=O)Nc2ccc(F)nc2)CCCN1c1nc(Nc2cc(C3CC3)n[nH]2)c2cccn2n1" | system: U2OS
### Response 0

### Prompt # query: Growth Rate | item "Cl.Cl.c1ccc([C@@H]2C[C@H]2NC2CCNCC2)cc1" | system: U2OS
### Response 1

### Prompt # query: Growth Rate | item "Cc1nc(C(=O)N2CCC[C@H]2Cc2nnc(-c3ccccc3)o2)c(-c2ccccc2F)s1" | system: U2OS
### Response 1

====

Test system: HEK-293T
Test: Multiplex assay against HEK293T
Assay type: toxicity, cell-based
Details: human, 24 h, 1 µM, compound concentration 1 uM, replicate 1
Population Membrane Permeable-Phenotype (%) values by entry
Numbers only; they are read as %.

>>> result_number("Cc1[nH]c(/C=C2\\C(=O)Nc3ccc(S(=O)(=O)N(C)c4cccc(Cl)c4)cc32)c(C)c1C(=O)N1CCN(C)CC1")
3
>>> result_number("C=CC(=O)Nc1cc2c(Nc3ccc(F)c(Cl)c3)ncnc2cc1OCCCN1CCOCC1.Cl.Cl [CANERTINIB DIHYDROCHLORIDE]")
8
>>> result_number("Cn1cc(-c2[nH]c3cc(NC(=O)[C@H](N)C4CCCCC4)cc4c3c2C=NNC4=O)cn1")
5

Proceeding to the next compound to report its Population Membrane Permeable-Phenotype (%).
### Prompt # query: Population Membrane Permeable-Phenotype (%) | item "CN(C)C(=O)/C(C#N)=C/c1ccc(-c2nc3cnc4[nH]ccc4c3n2C2CCCCC2)o1" | system: HEK-293T
### Response 2

====

Test system: U2OS
Test: Multiplex assay against U2OS
Assay type: toxicity, cell-based
Conditions: human, 12 h, 10 µM, compound concentration 10 uM, replicate 2
Population Normal (%) values by entry
Numbers only; they are read as %.

Reference set, count: 3
>>> result_number("Cc1[nH]c(/C=C2\\C(=O)Nc3ccc(S(=O)(=O)N(C)c4cccc(Cl)c4)cc32)c(C)c1C(=O)N1CCN(C)CC1")
87
>>> result_number("CNCc1ccc(-c2cc(-c3nc(-c4ccc(S(=O)(=O)C(C)C)cc4)cnc3N)on2)cc1")
54
>>> result_number("c1cn2cc(-c3ccc4cn[nH]c4c3)nc(Nc3ccc(N4CCOCC4)cc3)c2n1")
74

### Prompt Quick one: Population Normal (%) for O=C1NCN(c2ccccc2)C12CCN(CCCOc1ccc(F)cc1)CC2 [SPIRAMIDE] ?
### Response 91

====

Test system: Fibroblast
Assay: Multiplex assay against human fibroblast
Assay type: toxicity, cell-based
Conditions: 48 h, 1 µM, compound concentration 1 uM, replicate 1
Total Cell Count values by entry
Keep the answer to the number alone.

### Prompt Quick one: Total Cell Count for "Cc1cc(C)cc(-c2cnc3cc(Cl)c(-c4cccc(O)c4)cc3c2OCCCN)c1" ?
### Response 60

### Prompt Quick one: Total Cell Count for O=C1NCN(c2ccccc2)C12CCN(CCCOc1ccc(F)cc1)CC2 [SPIRAMIDE] ?
### Response 133

### Prompt Quick one: Total Cell Count for "CNc1nc(NCc2ccc(NS(C)(=O)=O)cc2Cl)cc(-c2ccccn2)n1" ?
### Response 155

### Prompt Quick one: Total Cell Count for "COc1cc(-n2cnc3cc(-c4ccc(Cl)cc4)sc3c2=O)ccc1OCCN1CCCC1" ?
### Response 166

### Prompt Quick one: Total Cell Count for "C=CC(=O)Nc1cccc(C(=O)Nc2ccc(Nc3cc(-c4[nH]c(SC)nc4C)ccn3)cc2)c1" ?
### Response 129

====

Test system: U2OS
Assay: Multiplex assay against U2OS
Assay type: toxicity, cell-based
Conditions: human, 12 h, 10 µM, compound concentration 10 uM, replicate 1
Total Cell Count values by entry
Keep the answer to the number alone.

Reference set, count: 5
>>> result_number("CN1CCN(c2ccc(OC(F)(F)F)c(Nc3ncc4c(n3)-c3c(c(C(N)=O)nn3CCO)CC4)c2)CC1 [ONVANSERTIB]")
150
>>> result_number("OC1(c2ccc(Cl)cc2)CCN(Cc2c[nH]c3ccccc23)CC1")
165
>>> result_number("CNc1nc(NCc2ccc(NS(C)(=O)=O)cc2Cl)cc(-c2ccccn2)n1")
91
>>> result_number("CN(C)CC#Cc1ccc(OCCCc2sc(N3CCc4cccc(C(=O)Nc5nc6ccccc6s5)c4C3)nc2C(=O)O)c(F)c1 [A-1155463]")
189
>>> result_number("Cc1csc2c(N[C@@H](C)CN3CCN(S(=O)(=O)c4ccc(Cl)c(Cl)c4)CC3)ncnc12")
114

### Prompt Quick one: Total Cell Count for COc1ncc(-c2ccc3nccc(-c4ccnnc4)c3c2)cc1NS(=O)(=O)c1ccc(F)cc1F [OMIPALISIB] ?
### Response 150

### Prompt Quick one: Total Cell Count for Cl.N#Cc1ccc2[nH]cc(CCCCN3CCN(c4ccc5oc(C(N)=O)cc5c4)CC3)c2c1 [VILAZODONE HYDROCHLORIDE] ?
### Response 120

### Prompt Quick one: Total Cell Count for "Cc1cc(C)cc(-c2cnc3cc(Cl)c(-c4cccc(O)c4)cc3c2OCCCN)c1" ?
### Response 207

Values were extracted from ChEMBL document CHEMBL4689842.
